Values from ChEMBL document CHEMBL1201862

# System: OVCAR-8
# protocol.description: NCI tumour cell line growth inhibition, 48 h
Calls of active or inactive are those of the source. No stated cut-off is given here; in the data, active = GI50 up to about 1.1 µM and inactive = higher.
Use one of these outcomes when replying: yes = active, no = inactive

Exam item: Kindly provide the recorded test outcome for the following compound: CC(=O)OCC1OC(n2c3c(c(-c4ccc(Cl)cc4)c(C#N)c2=S)C(=O)CC(C)(C)C3)C(OC(C)=O)C(OC(C)=O)C1OC(C)=O (stereo not given)
Marked response: no

Exam item: Please answer likewise for CN1CCN(C(=S)N(C)C(=O)c2cccs2)CC1
Marked response: no

Exam item: Please do the same for COc1cc(CNc2nc3c(N)cc(C(F)(F)F)cc3nc2-c2ccccc2)cc(OC)c1OC as well.
Marked response: no

Exam item: Same question, COc1cc2c3c(n(C)c(=O)c2cc1OC)-c1cc2c(cc1/C3=C\CCCCCBr)OCO2 this time
Marked response: no

Exam item: Follow-up entry: CC1C(c2ccc3c(c2)OCO3)c2cc3c(cc2OC1N1CCOCC1)OCO3 (stereo not given)
Marked response: no

Exam item: Consider next the compound O=[N+]([O-])c1ccc(N/N=C/c2ccc(OCCCCCCCCCCCO)cc2)c([N+](=O)[O-])c1 in the same way.
Marked response: no

Exam item: Now the same for O=c1[nH]c2cc3cccnc3c(Cl)c2nc1CBr
Marked response: no

Exam item: Could you do the same for N#CC(C(=O)CCCC(=O)Nc1ccc(Cl)cc1Cl)c1ccccc1 (stereo not given) , please?
Marked response: no

Exam item: Input COc1ccc(-n2c3c(c4cc(O)ccc42)Cc2ccccc2C3=O)cc1
Marked response: no

Exam item: Next up: O=C(O)CCC(=O)C(=O)O [ALPHA-KETOGLUTARIC ACID]
Marked response: no

Exam item: COc1ccc(/C=C2\N=C(SC)N(C)C2=O)cc1 , same question.
Marked response: no

Exam item: Now consider COc1ccc(N2C(=O)C(=O)N(c3ccc(/N=N\c4ccccc4)cc3)C2=S)cc1 and answer again.
Marked response: no

Exam item: What do you get for O=Cc1cc2c(o1)C(=O)c1ccccc1C2=O ?
Marked response: no

Exam item: Continue with Cn1c(=O)c2[nH]cnc2n(CC(=O)O)c1=O
Marked response: no

Exam item: Check C=CCN(CC=C)Cn1c(=S)sc2ccccc21 too.
Marked response: no

Exam item: Queued: NCCCCNCCCN1CCOC1=O
Marked response: no

Exam item: Now the same for CC(=O)CC(OC(C)=O)C1=CCC2C(CC1C)OC(=O)C2C (stereo not given)
Marked response: no

Exam item: Another compound: CNC1C(O)CC(OC2C/C=C(\C)C/C(C)=C/C=C/CCC(C)CNC(=O)/C=C/C=C/C2C)OC1C (stereo not given)
Marked response: yes

Exam item: Now this one: C[C@@H](NC(=O)c1ccc(CNC(=O)/C=C/c2cccc(Oc3ccccc3)c2)cc1)c1ccccc1
Marked response: no

Exam item: Follow-up item: COc1cc(O)c2c(=O)cc(-c3ccc(O)cc3O)oc2c1CC=C(C)C [ARTOCARPETIN A]
Marked response: no

Exam item: Moving on to O=P(O)(O)C1CCCC(P(=O)(O)O)N1 (stereo not given)
Marked response: no

Exam item: Next: O=C(CCc1nnc(S)[nH]1)Nc1ccc(Cl)c(Cl)c1
Marked response: no

Exam item: Could you do the same for O=c1cc(CNC2CC3CCC2C3)[nH]c(=O)[nH]1 (stereo not given) , please?
Marked response: no

Exam item: Please give the result for OCCN(C1=NCCN1)/[N+](=C/c1ccc(Cl)cc1)[CH-]c1ccc(Cl)cc1 too.
Marked response: no

Exam item: Note, next up: Cc1ccc(/N=N/c2c(O)ccc3ccccc23)c(C)c1
Marked response: no

----------
Field: GI50. Provide a value for each of the compounds that follow.
# Test system: HL-60
# protocol.description: NCI tumour cell line growth inhibition, 48 h
Calls of active or inactive are those of the source. Rule as the data show it: active = GI50 up to about 1.1 µM and inactive = higher.

Exam item: Entry Clc1cc(-c2ccccc2)nc2ccccc12 , system HL-60: what GI50 was measured?
Marked response: 22.5 µM (inactive)

Exam item: Entry to check: CCCCCC(=O)CCCCCCCC(O)CC(=O)OCC (stereo not drawn)
Marked response: 48.9 µM (inactive)

Exam item: Ok, now CC(C)(C)C[P+](C)(C)c1ccccc1
Marked response: 67.1 µM (inactive)

Exam item: Queued: O=[N+]([O-])c1ccc(N/N=C/c2ccc(OCCCCCCCCCCCO)cc2)c([N+](=O)[O-])c1
Marked response: 5.56 µM (inactive)

Exam item: Follow-up entry: CC(=O)OCC1OC(n2c(-c3ccc(C)cc3)cc(-c3ccco3)c(C#N)c2=O)C(OC(C)=O)C(OC(C)=O)C1OC(C)=O (stereo not drawn)
Marked response: 2.72 µM (inactive)

Exam item: Note, next up: CC1CC(=O)C(C(O)CC2CC(=O)N(c3ccccc3)C(=O)C2)C(C)C1 (stereo not drawn)
Marked response: > 100 µM (inactive)

Exam item: Subsequent entry: COc1cc(C2c3cc4c(cc3OC(N3CCCC3)C2C)OCO4)cc(OC)c1OC (stereo not drawn)
Marked response: 0.355 µM (active)

Exam item: Quick one: O=C1Nc2cccc(Cl)c2/C1=C\c1c(Cl)nc2n1CCS2
Marked response: > 100 µM (inactive)

Exam item: Now the same for O=C1c2ccccc2CC12Cc1ccccc1C2
Marked response: 16.6 µM (inactive)

Exam item: Could you do the same for CC(C)CC12CC3CCC(CNC1=O)C32C (stereo not drawn) , please?
Marked response: 31.9 µM (inactive)

Exam item: O=C1NC2=C(CCCC/C2=N\O)C12CCCCC2 ?
Marked response: 32.7 µM (inactive)

Exam item: // same read-out, input: CNC(=S)N/N=C/c1cccc(C)n1
Marked response: > 45.5 µM (inactive)

Exam item: Subsequent entry: Cc1cc(OC(=O)Nc2ccc(Cl)cc2)ccc1C(=S)Nc1ccccc1
Marked response: 14 µM (inactive)

Exam item: Another compound: OCC(CCc1ccccc1I)C1=CCC2(CC1)OCCO2 (stereo not drawn)
Marked response: 3.53 µM (inactive)

Exam item: Note, next up: COc1cc2[nH]c3c(c2cc1OC)CCN[C@]31CC[C@]2(CC3c4c(cc(OC)c(O)c42)CCN3C)C[C@H]1OC (stereo partly drawn)
Marked response: 11.6 µM (inactive)

Exam item: Now consider CN/N=C(\C)C(CN(C)C)C(c1ccccc1)c1c(O)c2ccccc2oc1=O (stereo not drawn) .
Marked response: 29.7 µM (inactive)

Exam item: For CC(CCCC1SCC2NC(=O)NC21)C(=O)O (stereo not drawn) then?
Marked response: > 100 µM (inactive)

Exam item: Would you kindly repeat that for COc1ccc(/C=C2\N=C(SC)N(C)C2=O)cc1 ?
Marked response: 27.5 µM (inactive)

Exam item: Similarly, COc1cc(CNc2nc3c(N)cc(C(F)(F)F)cc3nc2-c2ccccc2)cc(OC)c1OC ?
Marked response: > 10 µM (inactive)

Exam item: // repeat for CN(C)C(=O)C1CCN(Cc2c[nH]c3ccccc23)CC1 and report
Marked response: > 100 µM (inactive)

Exam item: Same again, this time with O=C(NCCNCCNC(=O)C(F)(F)F)C(F)(F)F
Marked response: > 100 µM (inactive)

Exam item: And then Cn1c2c(c3ccccc31)CCN(CCN1CCN(c3ccccc3)CC1)C2=O , what is it?
Marked response: > 100 µM (inactive)

Exam item: Moving on to the next compound: N=C(N)NCCCC(NC(=O)c1cccc2c(=O)c3ccccc3[nH]c12)C(=O)O (stereo not drawn)
Marked response: > 100 µM (inactive)

----------
# Test system: UACC-257
# protocol.description: NCI tumour cell line growth inhibition, 48 h
Active and inactive are the calls of the source. No stated cut-off is given here; in the data, active = GI50 up to about 1.1 µM and inactive = higher.
Select the matching outcome among 1 = active, 0 = inactive

Exam item: Query: recorded result category for COC(=O)/C(C#N)=C1\NN=NN1c1ccc(OC)cc1 in this test
Marked response: 0

Exam item: # repeat for COc1cc(S(=O)(=O)Nc2nc(-c3ccc(/N=C/c4ccccc4O)cc3)cs2)ccc1Cl
Marked response: 0

Exam item: Entry to check: CN/N=C(\C)C(CN(C)C)C(c1ccccc1)c1c(O)c2ccccc2oc1=O (stereo not drawn)
Marked response: 0

Exam item: Okay, and COc1cc2c3c(c1)c1cc(OC)c(OC)cc1c[n+]3CC2 ?
Marked response: 0

Exam item: Try the molecule c1cc2c(cc1C(N1CCNCC1)N1CCNCC1)OCO2
Marked response: 0

Exam item: What do you have for C#C[C@@]1(O)CCCC2=CC3(CC[C@]21C)SCCS3 ?
Marked response: 0

Exam item: Would you mind doing CCCCCCCCOCC(CO)OCCCCCCCC (stereo not drawn) as well?
Marked response: 0

Exam item: And for N=C(N)C(/N=N\c1ccccc1)C(=N)N (stereo not drawn) ?
Marked response: 0

Exam item: Also NS(=O)(=O)c1nnc(NS(=O)(=O)c2ccccc2C(=O)O)s1 , if possible.
Marked response: 0

Exam item: What do you get for NC(CCC(=O)NC(CSC(=O)N(O)c1ccc(Cl)cc1)C(=O)NCC(=O)O)C(=O)O (stereo not drawn) ?
Marked response: 1

Exam item: Repeat with COc1c(OC)c(OC)c(C(=O)/C=C/c2ccccc2)c(OC)c1OC
Marked response: 0

Exam item: Input COc1cc(/C=C/C(=O)C(C)(C)C)cc(OC)c1OC
Marked response: 0

Exam item: Same again, this time with CC1OC2(CC(OCc3ccccc3)C1OCc1ccccc1)OCCO2 (stereo not drawn)
Marked response: 0

Exam item: For Cc1ccc(/C=N/Nc2ccc3ccccc3n2)s1 then?
Marked response: 0

Exam item: Item: CCc1n[nH]c(=O)n1CCCCCCCCCCCCn1c(CC)n[nH]c1=O
Marked response: 0

Exam item: Another molecule to check: COc1cc2c3c(n(C)c(=O)c2cc1OC)-c1cc2c(cc1/C3=C\CCCCCBr)OCO2
Marked response: 0

Exam item: And what about the molecule CN(C)c1ccc(C(=NNC(=O)c2cc3ccccc3[nH]2)c2ccc(N(C)C)cc2)cc1 ?
Marked response: 0

Exam item: One more molecule: CN(C)C(=O)C1CCN(Cc2c[nH]c3ccccc23)CC1
Marked response: 0

Exam item: Again, but for COc1cccc2c1C(=O)c1c(O)c3c(c(O)c1C2=O)C[C@H](O)C[C@@H]3OC1CC(N)C(O)C(C)O1 (stereo partly drawn)
Marked response: 0

Exam item: Another molecule to check: O=[Se](O)O
Marked response: 0

Exam item: Now give it for O=C1NC2=C(CCCC/C2=N\O)C12CCCCC2 too.
Marked response: 0

Exam item: Repeat for the following molecule: CC(C)(C)C[P+](C)(C)c1ccccc1
Marked response: 0

Exam item: // next record COc1cc2[nH]c3c(c2cc1OC)CCN[C@]31CC[C@]2(CC3c4c(cc(OC)c(O)c42)CCN3C)C[C@H]1OC (stereo partly drawn)
Marked response: 0
